Kindly state pEC50 for each of the entries shown.
# system.under.test: T1, human CD63 (human, UniProt P08962 2-238)
# T1 construct: stably transfected in NIH3T3/hCD63; The cell line is named under assay; also called hCD63
# T1 sequence: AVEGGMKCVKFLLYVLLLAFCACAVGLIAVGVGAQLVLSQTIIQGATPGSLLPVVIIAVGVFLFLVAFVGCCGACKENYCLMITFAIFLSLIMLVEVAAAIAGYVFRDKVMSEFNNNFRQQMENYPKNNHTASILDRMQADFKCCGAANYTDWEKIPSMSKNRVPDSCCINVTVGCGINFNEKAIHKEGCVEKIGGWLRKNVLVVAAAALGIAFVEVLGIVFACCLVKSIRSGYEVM
# procedure.details: ECL, LNCAP cells
Remember the convention: pEC50 equals -log10 of concentration in molar.

Exam item: Value lookup for pEC50; key = H2M12385N (antibody, V domains shown, also called H2bM12385N; H2bM12385) VH: QVQLVESGGGLVKPGGSLRLSCAASGFTFTDYFMNWIRQAPGKGLEWVSYISNSGAIKYQADSVKGRFTISRDNAKNSLYLQMNSLRADDTAVYYCVRDPRSYYGFDYWGQGTLVTVSS VL: DIQMTQSPSSLSASVGDRVTITCRASQSIRNFLNWYQQKPGKAPRLLIYAASSLQSGVPSRFSGGGSGTDFTLTISSLQPEDFATYYCQQSYSNPPITFGQGTRLEIK
Marked response: 9.54

Exam item: Another: H1M12451N (antibody, V domains shown) VH: QVQLQESGPGLMKPSETLSLTCTVSGGSFSSYYWNWIRQSPGKGLEWIGYIRYSGDTNYKPSLKSRFTISIDTSKNLFSLRLKSVTAADTAVYYCARMGLGSDAFDIWGQGTMVTVSS VL: EIVLTQSPGTLSLSPGERATLSCRASQSVNNNYLAWYQQKPGQAPRLLIYGVFNRATNIPDRFSGSGSGTDFTLTISRLEPEDFAVYYCQQYGSSPWTFGQGTKVEIK
Marked response: 9.46

Exam item: Would you mind doing H2M12454N (antibody, V domains shown, also called H2bM12454N) VH: QVQLVESGGGLVKPGGSLRLSCAVSGFTYTDYFMNWIRQAPGKGLEWVSYISNSGAIKYYADSVKGRFTISRDNAKNSLYLQMNGLRADDTAVYYCVRDPRSYYGFDYWGQGTLVTVSS VL: DIQMTQSPSSLSASVGDRVTITCRASQSISNFLNWYQQKPGKAPRLLIYGASNLQSGVPSRFSGGGSGTDFTLTISSLQPADFATYYCQQSFSNPPVTFGQGTRLEIN as well?
Marked response: 9.74

Exam item: Record: H1M12362N (antibody, V domains shown) VH: QVQLVESGGGLVKPGGSLRLSCAASGFIFSDYYINWIRQAPGKGLEWVSYTSSSGSTTYYEDSVKGRFTMSRDNARNLVYLQMNSLRAEDTAAYYCVRDLRYNDGLDVWGQGTTVTVSS VL: DILLTQSPSSLSASVGDRVTITCRASQSIRTYLNWYQQKPGRAPKLLVYAASSLQSGVPSRFSGSGSGTDFTLTISSLQPEDFATYFCQQSYDNPPITFGQGTRLAIK
Marked response: 9.24

Exam item: Then this binder: H2M13022N (antibody, V domains shown, also called H2bM13022N) VH: QVQLVESGGGLVQPGGSLRLSCAASGFIFGDYYINWIRQAPGKGLQWVSYTSSSGSTTYYEDSVKGRFTMSRDNAKNLVYLQMNSLRAEDTAAYYCVRDLRYNDGLDVWGQGTTVIVSS VL: DILLTQSPSSLSAFVGDRVTITCRASQNIRTYLNWYQQKPGRAPKLLVYAASTLQSGVPSRFSGSGSGTDFTLTISSLQPEDFASYFCQQSYDNPPITFGQGTRLAIK
Marked response: 9.49

Exam item: Again, but for H2M12450N (antibody, V domains shown, also called H2aM12450N; mAb12450) VH: QVQLQESGPKVVKPSETLSLTCTVSGGSISSYYWNWIRQSPGKGLEWIGYTKRGYTDYNPSLRSRVTISEDTSKNQFSLRISSVTAADTAVYYCAQMGWGSHAFDMWGQGTMVAVSS VL: EIVLTQSPGTLSLSPGERATLSCRASQSVNSRYLAWYQQKPGQAPRLLIYGASSRATGIPDRCSGSGSGTDFTLTISRLEPEDFAVYYCQQYGSSPWTFGQGTKVEIK
Marked response: 8.85
